Biological target: HLA-A*30:01
Assay: IEDB peptide-MHC binding, purified MHC/competitive/radioactivity; filed as Kd, often an IC50 or EC50 that approximates it; bounds were set here for any values at or beyond the usual limits of such assays
Conditions: source organism: Mammarenavirus machupoense
pKd: −log10 of the molar value.
observation-type: pKd

{"columns": ["item-sequence", "observation-type", "value-reported"],
 "data": [
  ["CMLNNSFYY", "pKd", 6.25],
  ["LITEQFLCY", "pKd", 5.20]
]}

###

Target: HLA-B*51:01
Assay: IEDB peptide-MHC binding, purified MHC/direct/fluorescence; filed as Kd, often an IC50 or EC50 that approximates it; bounds were set here for any values at or beyond the usual limits of such assays
Conditions: source organism: Yellow fever virus 17D
pKd: −log10 of the molar value.

{"columns": ["item-sequence", "pKd"],
 "data": [
  ["RVLDCRTAF", "≤ 4.70"]
]}
